Reported LC retention time values are given for each entry in this list.
- testDescription: RP, Thermo Scientific Acclaim RSLC 120 C18, 100 × 2.1 mm, 2.2 µm, 30 °C, 0.2 mL/min, estimated dead time 1.1 min; A: 90% water + 10% methanol + 0.01% formic acid + 5 mM ammonium formate, pH 3.61; B: methanol + 0.01% formic acid + 5 mM ammonium formate, pH 3.61; gradient (min/%B) 0/1 1/1 2/39 13/99.9 15/99.9 15.1/1 20.1/1
- setupConditions: stereoisomer not certain
Kindly provide the numeric value in min only, without the unit symbol.

Please review the entries below; each comes with its answer.
COc1nc(C)nc(NC(=O)NS(=O)(=O)c2ccccc2OCCCl)n1 [Triasulfuron] ... 6.6
CC(C)(c1ccc(OCC(O)CCl)cc1)c1ccc(OCC2CO2)cc1 (stereo unspecified) [Bisphenol<U+00A0>A (3-chloro-2-hydroxypropyl) glycidyl ether] ... 11.1
O=C(OC1CN2CCC1CC2)N1CCc2ccccc2C1c1ccccc1 (stereo unspecified) [Solifenacin] ... 7.95
COc1cc2c(c(OC)c1OC)-c1ccc(OC)c(=O)cc1C(NC(C)=O)CC2 (stereo unspecified) [Colchicine] ... 6.43
CCC(c1ccccc1)c1c(O)c2ccccc2oc1=O (stereo unspecified) [Phenprocoumon] ... 9.05

IN: Please give the measured LC retention time for this molecule: CC1COC(=O)c2cc3c(cc21)C(C)(C)C(C)C3(C)C (stereo unspecified) [Galaxolidone]
OUT: 12

IN: Please give the measured LC retention time for this molecule: C=C(c1ccccc1OCc1cccc(Cl)c1)n1ccnc1 [Croconazole]
OUT: 10.7

IN: Please give the measured LC retention time for this molecule: CCN(CC)c1nc(C)cc(OP(=S)(OC)OC)n1 [Pirimiphos-methyl]
OUT: 11.3

IN: Please give the measured LC retention time for this molecule: CC1NCCOC1c1ccccc1 (stereo unspecified) [Phenmetrazine]
OUT: 4.14

IN: Please give the measured LC retention time for this molecule: CCOC(=O)N1CCC(=C2c3ccc(Cl)cc3CCc3cccnc32)CC1 [Loratadine]
OUT: 11.5

IN: Please give the measured LC retention time for this molecule: O=S(O)(O)=S [THJ]
OUT: 13.7
